Where do these numbers come from? They come from paper PMC11480844.

B1: H2-Kb / Ed8 (parent complex)
chain 1: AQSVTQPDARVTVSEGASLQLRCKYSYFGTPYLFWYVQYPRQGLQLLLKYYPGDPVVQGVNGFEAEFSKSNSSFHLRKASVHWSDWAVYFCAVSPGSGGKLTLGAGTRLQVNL
chain 2: DSGVVQSPRHIIKEKGGRSVLTCIPISGHSNVVWYQQTLGKELKFLIQHYEKVERDKGFLPSRFSVQQFDDYHSEMNMSALELEDSAMYFCASSPRASNYTFGSGTRLLVI
chain 3: not shown
chain 4: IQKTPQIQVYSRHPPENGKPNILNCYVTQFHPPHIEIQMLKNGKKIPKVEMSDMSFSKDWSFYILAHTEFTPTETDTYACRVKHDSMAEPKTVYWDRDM
chain 5: SIINFEKL

Variants of: B1
test_name: % of reporter cells activated (NFAT-GFP), raw; further: test concentration or dose not given here
Classification field: Satisfied = ratio to parent at or over 1; Not satisfied = ratio to parent under 1.

{"columns": ["changes", "assigned_category"],
 "data": [
  ["chain 5 S1M", "Satisfied"],
  ["chain 5 E6I", "Not satisfied"],
  ["chain 5 E6M", "Not satisfied"],
  ["chain 5 I2E", "Satisfied"],
  ["chain 5 L8N", "Satisfied"]
]}

QUERY: Say whether chain 5 K7I shows ratio to parent of 1 or more.
RESULT: Not satisfied

QUERY: Say whether chain 5 F5E shows ratio to parent of 1 or more.
RESULT: Not satisfied

QUERY: Say whether chain 5 F5R shows ratio to parent of 1 or more.
RESULT: Satisfied

QUERY: Say whether chain 5 S1F shows ratio to parent of 1 or more.
RESULT: Satisfied

QUERY: Say whether chain 5 K7E shows ratio to parent of 1 or more.
RESULT: Not satisfied

QUERY: Say whether chain 5 N4I shows ratio to parent of 1 or more.
RESULT: Not satisfied

QUERY: Say whether chain 5 N4H shows ratio to parent of 1 or more.
RESULT: Not satisfied

QUERY: Say whether chain 5 I2Q shows ratio to parent of 1 or more.
RESULT: Satisfied

QUERY: Say whether chain 5 I2D shows ratio to parent of 1 or more.
RESULT: Satisfied

QUERY: Say whether chain 5 K7R shows ratio to parent of 1 or more.
RESULT: Satisfied

QUERY: Say whether chain 5 K7H shows ratio to parent of 1 or more.
RESULT: Satisfied

QUERY: Say whether chain 5 I2C shows ratio to parent of 1 or more.
RESULT: Satisfied
